Every entry's value here was drawn from the NIST ThermoML archive (doi:10.1021/je060139a).

The following compounds are listed with their measured refractive index values.
test summary: refractive index (Na D-line) (dimensionless); xn = mol fraction of the nth substance listed
assay conditions: 318.15 K; 100.5 kPa; Liquid; Standard Abbe refractometry; x1 = 0.55
In your answer, state the number alone without any accompanying words.

Bench note: what refractive index did COC(=O)c1ccccc1 [methyl benzoate] + CCO show?
1.46384

# input compound: CCOC(=O)CC(C)C [ethyl 3-methylbutanoate] + CCO ; wanted: its refractive index
1.37644

GET /values?readout=refractive index&item= CCOC(=O)c1ccccc1O [ethyl 2-hydroxybenzoate] + CCO
1.47306

* * *

Measured surface tension liquid-gas values are reported for all entries that follow.
test summary: xn = mol fraction of the nth substance listed
assay conditions: 298.18 K, Wilhelmy plate method, x1 = 0.45
Report the figure in mN/m without appending any unit label.

molecule	surface tension liquid-gas [mN/m]
CCOC(=O)c1ccccc1O [ethyl 2-hydroxybenzoate] + CCO	27.55
CCOC(=O)CC(C)C [ethyl 3-methylbutanoate] + CCO	22.96
COC(=O)c1ccccc1 [methyl benzoate] + CCO	28.55

Fill in the blank: the reported surface tension liquid-gas of CC(=O)OCc1ccccc1 [benzyl ethanoate] + CCO is ____.
28.37

For the molecule shown here, CCOC(=O)CC(C)=O [ethyl 3-oxobutanoate] + CCO , give the reported surface tension liquid-gas.
26.86

Given the molecule CCC(=O)OCc1ccccc1 [benzyl propanoate] + CCO , what is its reported surface tension liquid-gas?
27.84
